# credit: patent US8609610B2

Molecular target: caspase-like sites (β1) of proteasome in MM cells (Homo sapiens, UniProt P28072+Q99436)
Sequence (P28072 35-239, one chain of several): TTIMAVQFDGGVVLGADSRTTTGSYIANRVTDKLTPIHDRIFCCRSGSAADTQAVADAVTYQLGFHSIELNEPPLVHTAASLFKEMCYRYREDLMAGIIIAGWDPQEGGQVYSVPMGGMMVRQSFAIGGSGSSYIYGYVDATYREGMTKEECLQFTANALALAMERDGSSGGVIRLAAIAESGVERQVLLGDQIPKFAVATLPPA
Assay: PROTEASOMEGLO assay of proteasome inhibition in MM cells
Format: cell-based
Details: read-out: IC50 for sites: Casp-L; RPMI-8226 cells, 6 hours; >>30 no inhibition at 30 μM, >30 inhibition 10-50% at 30 μM
reported-metric: IC50

Problem: Output measured IC50 for this item: Cc1c(O)cccc1C(=O)N[C@H](C(=O)N[C@@H](CO)C(=O)N[C@H](/C=C/S(C)(=O)=O)Cc1ccc(CN)cc1)C(C)C [Compound 48, HMB-Val-Ser-Phe (4-CH2NH2)-VS]
Result: > 30 µM

---

Molecular target: trypsin-like site of 26S proteasomes (Oryctolagus cuniculus, UniProt G1SWK8)
Construct: IC50 for sites in 26S proteasomes: Tr-L; other: purified 26S proteasomes; other: 26S proteasomes from rabbit muscles
Sequence (G1SWK8 1-271): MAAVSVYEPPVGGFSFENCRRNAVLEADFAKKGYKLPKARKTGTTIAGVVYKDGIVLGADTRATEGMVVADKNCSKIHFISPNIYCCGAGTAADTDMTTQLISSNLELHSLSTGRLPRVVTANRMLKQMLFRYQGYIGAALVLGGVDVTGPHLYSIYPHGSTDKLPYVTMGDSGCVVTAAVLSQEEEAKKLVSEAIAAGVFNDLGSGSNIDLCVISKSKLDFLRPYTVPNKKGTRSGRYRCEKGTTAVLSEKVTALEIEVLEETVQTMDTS
Test: Inhibition of purified 26S proteasomes, substrate Ac-RLR-amc
Settings: purified 26S proteasomes; >>30 no inhibition at 30 μM, >30 inhibition between 10 and 50% at 30 μM; read-out: IC50 for sites in 26S proteasomes: Tr-L
Where a name gives a salt, the structure may show the parent alone.
Output fulfilled for records whose IC50 is lower than 100 nM, not fulfilled for records at or above 100 nM.

Problem: Confirm or reject: IC50 of Cc1c(O)cccc1C(=O)N[C@H](C(=O)N[C@@H](CO)C(=O)N[C@H](/C=C/S(C)(=O)=O)Cc1ccc(N)cc1)C(C)C lies strictly below 100 nM
Result: not fulfilled

Problem: Confirm or reject: IC50 of CC(C)C[C@@H](/C=C/S(C)(=O)=O)NC(=O)[C@H](CC(C)C)NC(=O)[C@H](Cc1ccc(N)cc1)NC(=O)[C@H](Cc1ccccc1)N=[N+]=[N-] [Compound 56, N3-Phe-Phe(4-NH2-TFA)-Leu-Leu-VS] lies strictly below 100 nM
Result: not fulfilled

Problem: Confirm or reject: IC50 of CC(C)C[C@H](NC(=O)[C@H](Cc1ccccc1)N=[N+]=[N-])C(=O)N[C@@H](CC(C)C)C(=O)N[C@@H](Cc1ccc(CN)cc1)C(=O)[C@@]1(C)CO1 lies strictly below 100 nM
Result: not fulfilled

Problem: Confirm or reject: IC50 of CC(C)C[C@H](NC(=O)[C@H](Cc1ccc(N)cc1)NC(=O)[C@H](Cc1ccccc1)N=[N+]=[N-])C(=O)N[C@H](/C=C/S(C)(=O)=O)Cc1ccc(CN)cc1 lies strictly below 100 nM
Result: fulfilled

Problem: Confirm or reject: IC50 of CC(C)C[C@@H](/C=C/S(C)(=O)=O)NC(=O)[C@H](CC(C)C)NC(=O)[C@H](Cc1ccncc1)NC(=O)[C@H](Cc1ccccc1)N=[N+]=[N-] lies strictly below 100 nM
Result: not fulfilled

Problem: Confirm or reject: IC50 of CC(C)C[C@H](NC(=O)[C@H](Cc1ccc(CN)cc1)NC(=O)[C@H](Cc1ccccc1)N=[N+]=[N-])C(=O)N[C@H](/C=C/S(C)(=O)=O)Cc1ccc(CN)cc1 lies strictly below 100 nM
Result: fulfilled

Problem: Confirm or reject: IC50 of CC(C)C[C@H](NC(=O)[C@H](Cc1ccccc1)N=[N+]=[N-])C(=O)N[C@@H](CC(C)C)C(=O)N[C@H](/C=C/S(C)(=O)=O)Cc1ccc(N)cc1 [Compound 45a, N3-Phe-Leu-Leu-Phe(4-NH2)-VS] lies strictly below 100 nM
Result: not fulfilled

Problem: Confirm or reject: IC50 of CC(C)C[C@H](NC(=O)[C@H](Cc1ccccc1)NC(=O)[C@H](Cc1ccccc1)N=[N+]=[N-])C(=O)N[C@H](/C=C/S(C)(=O)=O)Cc1ccccc1 lies strictly below 100 nM
Result: not fulfilled

---

Biological target: trypsin-like sites (β2) of proteasome in MM cells (Homo sapiens, UniProt Q99436)
Construct: endogenous in cells; host or cells: NCI-H929, RPMI-8226 and other MM cell lines
Sequence (Q99436 44-277): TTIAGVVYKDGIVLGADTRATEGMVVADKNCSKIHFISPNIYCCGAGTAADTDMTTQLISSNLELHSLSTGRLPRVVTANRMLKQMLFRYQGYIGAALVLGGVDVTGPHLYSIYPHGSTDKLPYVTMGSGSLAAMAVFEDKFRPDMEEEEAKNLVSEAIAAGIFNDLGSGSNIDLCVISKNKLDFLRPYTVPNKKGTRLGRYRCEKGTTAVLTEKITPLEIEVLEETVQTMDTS
Assay: PROTEASOMEGLO assay of proteasome inhibition in MM cells
Assay type: cell-based
Details: NCI-H929 cells, 6 hours; >>30 no inhibition at 30 μM, >30 inhibition 10-50% at 30 μM; read-out: IC50 for sites: Tr-L
reported-metric: pIC50
Expect pIC50 as a plain number equal to -log10 of the molar concentration.

Problem: Output measured pIC50 for this item: Cc1c(O)cccc1C(=O)N[C@H](C(=O)N[C@@H](CO)C(=O)N[C@@H](CCCNC(=N)N)C(=O)[C@@]1(C)CO1)C(C)C [NC-022, HMB-Val-Ser-Arg-ek]
Result: 6.05

Problem: Output measured pIC50 for this item: Cc1c(O)cccc1C(=O)N[C@H](C(=O)N[C@@H](CO)C(=O)N[C@H](/C=C/S(C)(=O)=O)Cc1ccc(CN)cc1)C(C)C [Compound 48, HMB-Val-Ser-Phe (4-CH2NH2)-VS]
Result: 6.70

---

Biological target: chymotrypsin-like site of 26S proteasomes (Oryctolagus cuniculus)
Sequence (G1T4Q9 1-263): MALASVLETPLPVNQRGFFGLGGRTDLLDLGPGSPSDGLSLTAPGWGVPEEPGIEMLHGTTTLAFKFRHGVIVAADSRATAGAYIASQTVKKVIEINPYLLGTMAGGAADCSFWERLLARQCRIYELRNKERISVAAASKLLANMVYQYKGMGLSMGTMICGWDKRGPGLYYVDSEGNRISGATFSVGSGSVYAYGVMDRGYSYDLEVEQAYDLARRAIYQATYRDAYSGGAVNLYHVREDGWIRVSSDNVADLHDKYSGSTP
Assay: Inhibition of purified 26S proteasomes, substrate Suc-LLVY-amc
Conditions: >>30 no inhibition at 30 μM, >30 inhibition between 10 and 50% at 30 μM, read-out: IC50 for sites in 26S proteasomes: Chym-L
pIC50: −log10 of the molar value. Structures can show the parent of a compound that is named as a salt.
Label y for high-side pIC50 (at or above 7) and n for low-side pIC50 (below it).

Problem: # bool: pIC50 of CC(C)C[C@H](NC(=O)[C@H](Cc1ccccc1)N=[N+]=[N-])C(=O)N[C@@H](CC(C)C)C(=O)N[C@H](/C=C/S(C)(=O)=O)Cc1ccc(N)cc1 [Compound 45a, N3-Phe-Leu-Leu-Phe(4-NH2)-VS] >= 7
Result: y

Problem: # bool: pIC50 of Cc1c(O)cccc1C(=O)N[C@H](C(=O)N[C@@H](CO)C(=O)N[C@@H](CCCNC(=N)N)C(=O)[C@@]1(C)CO1)C(C)C [NC-022, HMB-Val-Ser-Arg-ek] >= 7
Result: n

Problem: # bool: pIC50 of CC(C)C[C@H](NC(=O)[C@H](Cc1ccccc1)N=[N+]=[N-])C(=O)N[C@@H](CC(C)C)C(=O)N[C@@H](Cc1ccc(N)cc1)C(=O)[C@@]1(C)CO1 [Compound 45b, N3-Phe-Leu-Leu-Phe(4-NH2)-EK] >= 7
Result: y

Problem: # bool: pIC50 of CC(C)C[C@H](NC(=O)[C@H](Cc1ccccc1)N=[N+]=[N-])C(=O)N[C@@H](CC(C)C)C(=O)N[C@H](/C=C/S(C)(=O)=O)Cc1ccncc1 [Compound 46, N3-Phe-Leu-Leu-Ala(4-pyridine)-VS] >= 7
Result: y

Problem: # bool: pIC50 of CC(C)C[C@@H](/C=C/S(C)(=O)=O)NC(=O)[C@H](CC(C)C)NC(=O)[C@H](Cc1ccc(N)cc1)NC(=O)[C@H](Cc1ccccc1)N=[N+]=[N-] [Compound 56, N3-Phe-Phe(4-NH2-TFA)-Leu-Leu-VS] >= 7
Result: y

Problem: # bool: pIC50 of CC(C)C[C@H](NC(=O)[C@H](Cc1ccc(CN)cc1)NC(=O)[C@H](Cc1ccccc1)N=[N+]=[N-])C(=O)N[C@H](/C=C/S(C)(=O)=O)Cc1ccc(CN)cc1 [Compound 52] >= 7
Result: n

Problem: # bool: pIC50 of CC(C)C[C@@H](/C=C/S(C)(=O)=O)NC(=O)[C@H](CC(C)C)NC(=O)[C@H](Cc1ccc(CN)cc1)NC(=O)[C@H](Cc1ccccc1)N=[N+]=[N-] [Compound 55, N3-Phe-Phe(4-CH2NH2.TFA)-Leu-Leu-VS] >= 7
Result: y

Problem: # bool: pIC50 of Cc1c(O)cccc1C(=O)N[C@H](C(=O)N[C@@H](CO)C(=O)N[C@H](/C=C/S(C)(=O)=O)Cc1ccc(N)cc1)C(C)C [Compound 49, HMB-Val-Ser-Phe(4-NH2)-VS] >= 7
Result: y

Problem: # bool: pIC50 of CC(=O)N[C@@H](CC(C)C)C(=O)N[C@@H](CC(C)C)C(=O)N[C@@H](CCCNC(=N)N)C(=O)[C@@]1(C)CO1 [NC-002, Ac-Leu-Leu-Arg-ek] >= 7
Result: n

Problem: # bool: pIC50 of CC(C)C[C@H](NC(=O)[C@H](Cc1ccc(N)cc1)NC(=O)[C@H](Cc1ccccc1)N=[N+]=[N-])C(=O)N[C@H](/C=C/S(C)(=O)=O)Cc1ccc(CN)cc1 [Compound 51] >= 7
Result: n
